Source of measurements: the supplement of paper PMC9170038

# Tested on: MS2 coat protein
# MEASUREMENT DESCRIPTION: apparent KD of MS2 coat protein; designed switch direction (-1 OFF switch, 1 ON switch): -1; higher = weaker reporter binding
# CONDITIONS USED: input ligand: none
Classify by measured apparent KD of MS2 coat protein: condition met if it is equal to or exceeds 40 nM, condition not met if it is smaller.

1. CUGUACAUAGGAUAUAGUUGUUUUUACAUGAGGAUCACCCAUGUUACUCCUCUCUCUCUUCUAGAAGGAUGUUUUU [JR_E5_Sub007] (Eterna round: R96, puzzle: Exclusion 5) | condition met
2. CCGCUGCAAGGAUAUACUUGCGGUGGUGCUCGAGUUCUUCUACUUGAGGAUCACCCAAGUAGAAGGUGCAAAAC [jl-ex2.4.57 ViennaUCT mod] (Eterna round: R97, puzzle: Exclusion 2) | condition not met
3. GGAUGUUCAGAGGAUAUCGAUCCCGAGACCGGGCGAGAAGGUUGAACAUGAGGAUCACCCAUGUGAGGCCUAAC [Cebezais] (Eterna round: R97, puzzle: Exclusion 6) | condition not met
4. CCUCAACAGUAGGAUAUCAUCAAACUAUUGUGAUGAGAAGGACUGACAUGAGGAUCACCCAUGUUAACGUGAUG [Mod of Brourd - Jieux - Exclusion 6] (Eterna round: R97, puzzle: Exclusion 6) | condition not met
